Reference for the values: the supplement of paper PMC10567573

B1: PRAME (parent)
chain: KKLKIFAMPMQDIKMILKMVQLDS

Variants of: B1
procedure details: protein stability index of a GFP-peptide fusion (GPS, HEK-293T) (PSI 1-6); higher = more stable;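 further: lentivirally expressed fusions sorted by FACS into six bins by GFP to DsRed ratio, PSI derived from sequencing read proportions per bin multiplied by bin number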
test parameters: c terminus: a fixed tail appended
For each entry below, report its protein stability index value.
Answer with a bare number; do not write a unit.

For the variant `M19W` , report protein stability index.
2.46

For the variant `K14I` , report protein stability index.
3.61

For the variant `M8K` , report protein stability index.
2.42

For the variant `M10P` , report protein stability index.
2.72

For the variant `M8V` , report protein stability index.
3.54

For the variant `V20A` , report protein stability index.
3.51

For the variant `M19G` , report protein stability index.
2.15

For the variant `D23W` , report protein stability index.
2.58

For the variant `L3Y` , report protein stability index.
4.33

For the variant `F6K` , report protein stability index.
2.72

For the variant `I13M` , report protein stability index.
2.88
